Recorded values, source PubChem BioAssay (NCATS).

assay-remarks: Cytotoxicity counterscreen for inhibitors of SARS-CoV-2 cell entry (AID 1645845); also: nearly all actives have a fitted effect of over 50% in size
run-parameters: cell viability (SARS-CoV-2 entry assay cells); series mostly up to 57.1 µM
Results filed as inconclusive are left out. Activity calls are given as the source filed them. Calls follow the shape of the full dose curve.
Outcome (select one): active, inactive

Cc1ccc(C(=O)Nc2ccc(CN3CCN(C)CC3)c(C(F)(F)F)c2)cc1C#Cc1cnc2[nH]ncc2c1
active

Record request — test call for CSCCNc1nc(SCCC(F)(F)F)nc2c1ncn2[C@@H]1O[C@H](COP(=O)(O)OP(=O)(O)C(Cl)(Cl)P(=O)(O)O)[C@@H](O)[C@H]1O
inactive

Record request — test call for CCN(CCCOc1ccc2c(Nc3cc(CC(=O)Nc4cccc(F)c4)[nH]n3)ncnc2c1)CCOP(=O)(O)O
inactive

Record request — test call for COc1ccc2nc3n[nH]c(C)c3c(NCCOCCO)c2c1
inactive

Record request — test call for OCCOCCOCCO
inactive

Record request — test call for O=C(Nc1ccc(O)cc1)c1ccccc1O
inactive

Record request — test call for COc1nc2ccc(Br)cc2cc1[C@@H](c1ccccc1)[C@@](O)(CCN(C)C)c1cccc2ccccc12
inactive

Record request — test call for CCCCCCCCCCCCC[N+](C)(C)Cc1ccccc1
active

====

assay-remarks: Confirmation and Secondary Assay for Modulators of Hemoglobin Beta Chain Splicing at IVS2 654 locus (AID 910);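 also: HeLa cells stably carrying EGFP split by mutant beta-globin IVS2-654 intron; per-well total GFP intensity by laser scanning cytometry after 2-day treatment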
run-parameters: HeLa EGFP-654 splicing reporter, GFP fluorescence, 48 h; series mostly up to 46.1 µM
Calls of active or inactive are those of the source. The call rests on the fitted dose curve; in most records, active means well fitted activation curve with a large enough effect; inconclusive means small, poorly fitted or top-dose-only effect; inactive means flat fitted curve, though single readings scatter.
parameter: outcome

c1ccc2c(c1)[nH]c1cnccc12
inactive
C=C1C2CCC3[C@@](CC[C@@H]4C(C(=O)O)CC(OC5OC(CO)C(OS(=O)(=O)O)C(OS(=O)(=O)O)C5OC(=O)CC(C)C)C[C@]34C)(C2)C1O (some centres undefined)
inactive
COC[C@]12CN(C=O)C3C4C(OC)C1[C@@]3(C1CC3(O)C(OC)C(O)C4(OC(C)=O)C1C3OC(=O)c1ccccc1)[C@@H](OC)CC2O (some centres undefined)
inactive
CCOC(=O)C1C(C=C(C)C)C1(C)C (centres undefined)
inactive

====

assay-remarks: Confirmatory qHTS for activators (rescue) of SARS-CoV-2 Cytopathic Effect (CPE) (AID 1508606); also: nearly all actives have a fitted effect of over 70% in size
run-parameters: Vero E6 SARS-CoV-2 CPE rescue, viability luminescence; series mostly up to 20 µM
Results filed as inconclusive are left out. Activity calls are given as the source filed them. Calls follow the shape of the full dose curve. Square brackets hold non-standard residues; d marks the D form. Peptide text beside a SMILES is read from it. Nle = CCCC[C@H](N)C(=O)O
Outcome (select one): active, inactive

Answered cases to consult:
Cc1cnc(NC(=O)c2cc(S(=O)(=O)N(C)C)ccc2N2CCCC2)s1
active
CC#C[C@@H](CC(=O)O)c1ccc(OCc2cccc(-c3ccc(C(F)(F)F)cc3)c2)cc1
active
Nc1ncnc2c1c(-c1ccc(Oc3ccccc3)cc1)nn2[C@@H]1CCCNC1
inactive
COc1ccc2cc(-c3cc(-c4cc(Cl)cc(Cl)c4)nn3C(C)c3ccc(C(=O)NCCC(=O)O)cc3)ccc2c1 (configuration not stated)
inactive
CC1(C)CC[C@]23CO[C@@]4(CCC5[C@@]6(C)CC[C@H](O[C@@H]7OC[C@H](O[C@@H]8O[C@H](CO)[C@@H](O)[C@H](O)[C@H]8O[C@@H]8OC[C@@H](O)[C@H](O)[C@H]8O)[C@H](O)[C@H]7O[C@@H]7O[C@H](CO)[C@@H](O)[C@H](O)[C@H]7O)[C@@](C)(CO)C6CC[C@@]5(C)[C@]4(C)C[C@H]2O)[C@@H]3C1 (some centres not stated)
inactive
CC1(C)CCC(C)(C)c2cc(C#Cc3ccc(C(=O)O)cc3)ccc21
inactive
COc1ccc2c(c1)CN(C(=O)CCN1CCC(Cc3ccccc3)CC1)CCS2
active
Cc1nc(Nc2cnn(C3CCNCC3)c2)nc2c1N(C)C(=O)c1cc3ccccc3cc1N2C
active

Record request — test call for C(=N\Nc1nc(Nc2ccccc2)nc(N2CCOCC2)n1)/c1c[nH]c2ccccc12
active

Record request — test call for OC1CCC(Oc2cccc3cnc(Nc4ccc5nc[nH]c5c4)nc23)CC1 (configuration not stated)
active

Record request — test call for CCCC[C@@H](C=O)NC(=O)[C@H](CC(C)C)NC(=O)[C@H](CC(C)C)NC(C)=O (Ac-Leu-Leu-[Nle]-aldehyde)
active

Record request — test call for CC1OC2OC3C(OCC(O)C3O)OC(=O)C34CCC(C)(C)CC3C3=CCC5C6(C)CC(O)C(OC7OC(CO)C(O)C(O)C7OC7OCC(OC(=O)CC(C)(O)CC(=O)OC1C(OC1OCC(O)C(O)C1O)C2O)C(O)C7O)C(C)(CO)C6CCC5(C)C3(C)CC4O (configuration not stated)
inactive

====

assay-remarks: qHTS assay for small molecule agonists of the antioxidant response element (ARE) signaling pathway (AID 651741)
run-parameters: HepG2 ARE-bla reporter, beta-lactamase FRET ratio, 16 h; series mostly up to 96 µM
Inconclusive results are not listed. The source made the active and inactive calls. Calls follow the shape of the dose curve; as a rule, active = well fitted activation curve with a large enough effect in the signal ratio; inconclusive = small, poorly fitted or top-dose-only effect, or effect the other way, or a change in a side signal; inactive = flat fitted curve, though single readings scatter; the % refers to the signal ratio.
Outcome (select one): active, inactive

Answered cases to consult:
CC(Cl)Cl
inactive
C=Cc1ccccc1
inactive
O=C(Cl)/C=C/C(=O)Cl
inactive

Record request — test call for OCC(Br)CBr (configuration not stated)
inactive

Record request — test call for ClC(Cl)=C(Cl)Cl
inactive

Record request — test call for NC(=S)Nc1ccccc1
inactive

Record request — test call for Nc1ccccc1Cl
inactive

Record request — test call for CCSC(=O)Cl
inactive

====

In this section we review reported Potency values for a set of molecules.
assay-remarks: qHTS assay to identify inhibitors of the type 1 interferon - major histocompatibility complex class I in skeletal muscle: Counter screen cell viability and HiBit confirmation (AID 1347412); also: potency is read from the fitted curve at half-maximal effect; nearly all actives have a fitted effect of over 60% in size
run-parameters: iHSKM muscle cells + IFN-b, HiBiT or CellTiter-Glo, 24 h; HiBiT
Inconclusive results are not listed. Activity calls are given as the source filed them. The call rests on the fitted dose curve; in most records, active means well fitted inhibition curve with a large enough effect; inconclusive means small, poorly fitted or top-dose-only effect; inactive means no such curve, though single readings can be large or run the other way.

Form field: reported Potency of CC(=O)OC[C@H]1O[C@@H]([S-])[C@H](OC(C)=O)[C@@H](OC(C)=O)[C@@H]1OC(C)=O.CC[PH+](CC)CC.[Au]
1110 nM (active)

Form field: reported Potency of CC1(C)CC[C@]2(NC(=O)C(C)(F)F)CC[C@]3(C)[C@H](C(=O)C=C4[C@@]5(C)C=C(C#N)C(=O)C(C)(C)[C@@H]5CC[C@]43C)[C@@H]2C1
1570 nM (active)

Form field: reported Potency of CO[C@H]1CCC(O[C@H]2C[C@H]([C@]3(C)CC[C@]4(C[C@H](O)[C@@H](C)[C@@H]([C@@H](C)/C=C(\C)C(=O)[C@H](C)C[C@H](C)C(=O)O)O4)O3)O[C@]3(O[C@@H]([C@H]4O[C@@](O)(CO)[C@H](C)C[C@@H]4C)C[C@@H]3C)[C@@H]2C)O[C@@H]1C (stereo partly specified)
12500 nM (active)

Form field: reported Potency of CC(C)[C@]12O[C@H]1[C@@H]1O[C@@]13[C@@]1(C)CCC4=C(COC4=O)[C@@H]1C[C@@H]1O[C@@]13C2=O
49.7 nM (active)

Form field: reported Potency of Cc1[nH]ncc1-c1cc2nc([C@@H]3CC4CCN3CC4)[nH]c(=O)c2s1
4430 nM (active)

Form field: reported Potency of O=C1/C(=C\c2ccccc2)C[C@@]2(O)[C@H]3Cc4ccc(O)c5c4[C@@]2(CCN3CC2CC2)[C@H]1O5
3520 nM (active)

====

System: CP203
assay-remarks: qHTS profiling for inhibitors of Plasmodium falciparum proliferation (AID 504749); also: nearly all actives have a fitted effect of over 60% in size
run-parameters: P. falciparum in erythrocytes, SYBR Green DNA, 72 h; series mostly up to 28.7 µM
Records with an inconclusive call do not appear. The source made the active and inactive calls. The call rests on the fitted dose curve; in most records, active means well fitted inhibition curve with a large enough effect; inconclusive means small, poorly fitted or top-dose-only effect; inactive means flat fitted curve, though single readings scatter.
Outcome (select one): y = active, n = inactive

Answered cases to consult:
COc1cc2c(cc1OC)[C@@]13CCN4CC5=CCOC6CC(=O)N2C1[C@H]6[C@@H]5C[C@@H]43 (some centres undefined)
n
C[N+]1([O-])[C@@H]2CC[C@H]1CC(OC(=O)[C@@H](CO)c1ccccc1)C2 (some centres undefined)
n
C=CC1CN2CCC1CC2C(OC(=O)OCC)c1ccnc2ccc(OC)cc12 (centres undefined)
y

Please turn your attention to the following entry.
Record request — test call for CC[C@@H]1[C@@H]2C[C@H]3[C@H]4N(C)c5ccccc5[C@@]45C[C@@H]([C@@H]2[C@@H]5O)N3[C@H]1O
n

====

assay-remarks: Cell Viability - LYMP2-013 (AID 970);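 also: cells exposed to compound for 24 h at 37 °C; nearly all actives have a fitted effect of over 55% in size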
run-parameters: LYMP2-013 lymphoblastoid cells viability; series mostly up to 92.2 µM
Source text: NIH Chemical Genomics Center [NCGC] NIH Molecular Libraries Screening Centers Network [MLSCN] National Institutes of Environmental Health Sciences [NIEHS] National Toxicology Program [NTP] We have developed a 1536-well cell-based assay for quantitative high throughput screening (qHTS) against a number of cell lines to determine in vitro cytotoxicity of small molecules. […] 8. Detection; Luminescence; Viewlux plate reader […]
Results filed as inconclusive are left out. Calls of active or inactive are those of the source. Calls follow the shape of the dose curve; as a rule, active = well fitted cell-killing curve with a large enough effect; inconclusive = small, poorly fitted or top-dose-only effect; inactive = flat fitted curve, though single readings scatter.
Outcome (select one): Y (active), N (inactive)

Answered cases to consult:
c1ccc2c(c1)CCCC2
N
Cc1cccc(C#N)c1
N

Please turn your attention to the following entry.
Record request — test call for CC(=O)[O-].CC(=O)[O-].O.O.O.[Pb+2]
N
